- System: Escherichia coli TOP10
- measurement.protocol: shrunken log2 fold change of peptide-encoding DNA abundance (4.5 h post-induction vs induction); higher = less antimicrobial activity (less host growth inhibition)
- applied.conditions: time post-induction: 4.5 h; library: site-saturation at positions 5, 18, 19, 20
Give measured shrunken log2 fold change for each item. Keep answers brief.

Below are worked cases with known answers.
# sequence.input, shrunken log2 fold change
measured = [
    ("RRIRQRPPRLPRPRPRPQPHPRP", 0.158),
    ("RRIRRRPPRLPRPRPRPEHAPRP", 0.686),
    ("RRIRGRPPRLPRPRPRPYWQPRP", -0.369),
    ("RRIRPRPPRLPRPRPRPVVRPRP", 0.116),
    ("RRIRDRPPRLPRPRPRPRHIPRP", -0.25),
]

For each listed entry, give its shrunken log2 fold change.
1. RRIRKRPPRLPRPRPRPWFPPRP
2. RRIRTRPPRLPRPRPRPQAHPRP
3. RRIRQRPPRLPRPRPRPAGCPRP
4. RRIRSRPPRLPRPRPRPKHVPRP

## Output
-0.0488
-0.452
0.409
-0.183

---

- Tested on: Escherichia coli TOP10
- measurement.protocol: shrunken log2 fold change of peptide-encoding DNA abundance (4.5 h post-induction vs induction); higher = less antimicrobial activity (less host growth inhibition)
- applied.conditions: time post-induction: 4.5 h; library: site-saturation at positions 5, 18, 19, 20
measurement.kind: shrunken log2 fold change
Answers are plain numbers.

Below are worked cases with known answers.
# sequence.input, tested.on, shrunken log2 fold change
measured = [
    ("RRIRKRPPRLPRPRPRPTVYPRP", "Escherichia coli TOP10", -0.0794),
    ("RRIRYRPPRLPRPRPRPKGSPRP", "Escherichia coli TOP10", -0.143),
    ("RRIRHRPPRLPRPRPRPHEPPRP", "Escherichia coli TOP10", -0.0274),
    ("RRIRHRPPRLPRPRPRPEAVPRP", "Escherichia coli TOP10", -0.00144),
    ("RRIRWRPPRLPRPRPRPIADPRP", "Escherichia coli TOP10", 0.0247),
]

For each listed entry, give its shrunken log2 fold change.
1. RRIRYRPPRLPRPRPRPSYKPRP
2. RRIRYRPPRLPRPRPRPAEFPRP
3. RRIRNRPPRLPRPRPRPFLNPRP

## Output
1. -1.22
2. -0.266
3. -0.392

---

Give measured shrunken log2 fold change for each item. Keep answers brief.
- Test system: Escherichia coli TOP10;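 further: peptides expressed intracellularly from a pBAD plasmid library in pooled LB shake-flask culture, induced with 0.3% L-arabinose, DNA abundance read by NGS, three biological replicates, DESeq2 with apeglm shrinkage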
- measurement.protocol: shrunken log2 fold change of peptide-encoding DNA abundance (4.5 h post-induction vs induction); higher = less antimicrobial activity (less host growth inhibition)
- applied.conditions: time post-induction: 4.5 h; library: site-saturation at positions 5, 18, 19, 20
One number for each entry.

For each listed entry, give its shrunken log2 fold change.
1. RRIRRRPPRLPRPRPRPWHIPRP
2. RRIRIRPPRLPRPRPRPLRVPRP

## Output
-0.246
0.291

For each listed entry, give its shrunken log2 fold change.
1. RRIRDRPPRLPRPRPRPHATPRP
2. RRIRCRPPRLPRPRPRPIDKPRP
3. RRIRHRPPRLPRPRPRPPYMPRP

## Output
1. 0.985
2. -0.161
3. -0.539

For each listed entry, give its shrunken log2 fold change.
1. RRIRFRPPRLPRPRPRPIMPPRP
2. RRIRCRPPRLPRPRPRPIPVPRP
3. RRIRTRPPRLPRPRPRPWGKPRP

## Output
1: -0.127; 2: -0.376; 3: 0.201

For each listed entry, give its shrunken log2 fold change.
1. RRIRLRPPRLPRPRPRPQVSPRP
2. RRIRHRPPRLPRPRPRPEWNPRP

## Output
[0.0548, -0.294]
